Measured values drawn from patent US20110135636A1 for this set.

# Assay target: T1, recombinant human EGFR extracellular domain with 6xHis (human, UniProt P00533 25-645)
# T1 construct: In-house produced; also called 6xHis EGFR ECD; soluble human EGFR ECD; not shown: 6xHis tag
# Measurement notes: SPR competition, competitor Ab-3
Value type: % inhibition (%)
Kindly answer with a numeric value in %, unit omitted.

Below, each entry is followed by its recorded % inhibition result.
Requested read-out: % inhibition. Entry: antibody 1257 (antibody, human IgG1, kappa, V domains shown, Chimeric IgG1 kappa) VH: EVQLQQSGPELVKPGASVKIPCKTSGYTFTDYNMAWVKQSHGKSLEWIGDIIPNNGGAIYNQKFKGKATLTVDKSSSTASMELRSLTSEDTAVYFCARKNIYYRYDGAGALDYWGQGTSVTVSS VL: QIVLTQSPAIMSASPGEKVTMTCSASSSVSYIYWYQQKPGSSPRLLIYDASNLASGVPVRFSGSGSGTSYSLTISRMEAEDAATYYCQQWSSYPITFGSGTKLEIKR
85

Requested read-out: % inhibition. Entry: antibody 1042 (antibody, human IgG1, kappa, V domains shown, Chimeric IgG1 kappa; RA- left out of the VH entry) VH: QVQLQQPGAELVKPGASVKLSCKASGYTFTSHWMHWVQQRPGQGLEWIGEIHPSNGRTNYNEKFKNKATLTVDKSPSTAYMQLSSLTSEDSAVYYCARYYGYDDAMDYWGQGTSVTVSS VL: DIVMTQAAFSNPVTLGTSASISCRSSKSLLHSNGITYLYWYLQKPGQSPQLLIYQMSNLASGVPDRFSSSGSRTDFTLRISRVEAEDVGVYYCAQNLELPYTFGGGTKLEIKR
0

Requested read-out: % inhibition. Entry: antibody 992 (antibody, human IgG1, kappa, V domains shown, Chimeric mouse/human IgG1 kappa; the VL entry includes the human kappa constant region) VH: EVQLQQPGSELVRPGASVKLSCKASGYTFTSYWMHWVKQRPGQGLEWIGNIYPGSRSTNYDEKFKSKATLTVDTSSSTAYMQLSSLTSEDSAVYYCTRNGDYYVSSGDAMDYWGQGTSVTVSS VL: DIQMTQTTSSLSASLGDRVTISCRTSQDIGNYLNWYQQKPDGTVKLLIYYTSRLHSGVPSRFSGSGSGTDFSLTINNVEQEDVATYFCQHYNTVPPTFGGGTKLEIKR
7

Requested read-out: % inhibition. Entry: antibody 1308 (antibody, human IgG1, kappa, V domains shown, Chimeric IgG1 kappa) VH: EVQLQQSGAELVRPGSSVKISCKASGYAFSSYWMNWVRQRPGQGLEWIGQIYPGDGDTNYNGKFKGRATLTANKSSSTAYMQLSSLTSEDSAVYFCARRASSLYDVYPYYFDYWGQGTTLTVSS VL: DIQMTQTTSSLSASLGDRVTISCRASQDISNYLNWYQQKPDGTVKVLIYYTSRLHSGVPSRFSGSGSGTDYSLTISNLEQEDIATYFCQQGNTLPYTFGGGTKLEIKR
11

Read the next record carefully.
Requested read-out: % inhibition. Entry: antibody 1261 (antibody, human IgG1, kappa, V domains shown, Chimeric IgG1 kappa) VH: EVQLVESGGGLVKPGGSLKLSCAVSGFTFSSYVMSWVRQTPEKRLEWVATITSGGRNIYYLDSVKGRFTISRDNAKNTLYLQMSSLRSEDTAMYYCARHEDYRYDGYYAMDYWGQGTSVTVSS VL: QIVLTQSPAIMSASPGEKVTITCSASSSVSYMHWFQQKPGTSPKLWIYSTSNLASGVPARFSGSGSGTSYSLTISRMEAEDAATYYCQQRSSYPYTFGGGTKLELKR
54
